The reported measurements were obtained from ChEMBL document CHEMBL3286390.

Measured log10 solubility at 24 h, listed per entry.
- assay-details: Aqueous solubility of the compound in phosphate buffer at pH 7.4 after 24 hrs by UV-MS analysis
- Type: physicochemical
Response schema: value (number) is log10 of solubility at 24 h in units of µM.

Use the examples below as a reference point.
1. COc1ncnc(Cn2cc(C(=O)NCCF)c3ncc(C)cc32)c1C = 0.60
2. Cc1cnc2c(C(=O)NCCO)cn(Cc3ncnc(OC(F)F)c3C)c2c1 = 1.83
3. Cc1cnc2c(C(=O)NCCO)cn(Cc3ncnc(N(C)C)c3C)c2c1 = 2.67

**Query** Could you please provide reported log10 solubility at 24 h for COc1cnc2c(C(=O)NCCO)cn(Cc3ncnc(N(C)C)c3C)c2c1 ? Thanks!
**Result** 2.11

**Query** Could you please provide reported log10 solubility at 24 h for COc1cnc2c(C(=O)NCCO)cn(Cc3ncnc(OC)c3C)c2c1 ? Thanks!
**Result** 2.50

**Query** Could you please provide reported log10 solubility at 24 h for COc1ncnc(Cn2cc(C(=O)NCC(F)F)c3ncc(C)cc32)c1C ? Thanks!
**Result** 0.48
